Every entry's value here was drawn from the supplement of paper PMC13380429.

Items are presented alongside their recorded SARS-CoV-2 infection rate.
Test system: A549-ACE2 infected with SARS-CoV-2
methodSummary: SARS-CoV-2 infection rate relative to DMSO; higher = more infection
testContext: 10 µM; 24 h
Where a name gives a salt, the structure may show the parent alone.
Quick note: give the figure in %, leave out the unit.

Worked cases, SARS-CoV-2 infection rate given:
C=C1C(=O)O[C@@H]2C[C@@]3(C)CCC[C@H](C)C3=C[C@H]12 ... 91
CC/C(=C(\c1ccc(O)cc1)c1ccc(OCCNC)cc1)c1ccccc1 [Endoxifen HCl] ... 8
CCSc1ccc2c(c1)N(CCCN1CCN(C)CC1)c1ccccc1S2 ... 12

The compound CC(C)C[C@H](NC(=O)[C@H](Cc1ccccc1)NC(=O)c1cnccn1)B(O)O , when measured on A549-ACE2 infected with SARS-CoV-2, yielded SARS-CoV-2 infection rate of 16
